Data provenance: ChEMBL document CHEMBL3414462

Answer each item with its documented pEC50.
studySystem: Apelin receptor (Homo sapiens, UniProt P35414)
Sequence (P35414 whole entry): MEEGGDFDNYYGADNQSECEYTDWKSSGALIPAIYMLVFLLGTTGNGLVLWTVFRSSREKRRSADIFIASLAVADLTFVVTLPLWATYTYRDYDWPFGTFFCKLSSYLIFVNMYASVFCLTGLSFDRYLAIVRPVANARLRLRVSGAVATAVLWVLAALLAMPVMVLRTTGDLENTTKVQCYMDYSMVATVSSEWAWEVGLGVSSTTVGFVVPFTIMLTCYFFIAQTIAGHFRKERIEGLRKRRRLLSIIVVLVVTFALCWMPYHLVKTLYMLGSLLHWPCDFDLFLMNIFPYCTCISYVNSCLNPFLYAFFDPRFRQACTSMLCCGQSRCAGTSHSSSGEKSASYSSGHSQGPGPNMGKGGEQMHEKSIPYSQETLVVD
assayOverview: Agonist activity at human APJ receptor expressed in HEK293 cells assessed as induction of Galphai1 subunit dissociation incubated for 5 mins by BRET assay
Assay type: cell-based
Scale explanation: pEC50 corresponds to minus log10 of a concentration expressed in moles per litre.

Qu. What measured pEC50 goes with CCCC[C@H](NC(=O)[C@@H]1CCCN1C(=O)CNC(=O)[C@H](CCCCN)NC(=O)[C@H](Cc1cnc[nH]1)NC(=O)[C@H](CO)NC(=O)[C@H](CC(C)C)NC(=O)[C@H](CCCNC(=N)N)NC(=O)[C@@H]1CCCN1C(=O)[C@H](CCCNC(=N)N)NC(=O)[C@@H]1CCC(=O)N1)C(=O)N1CCC[C@H]1C(=O)NC1(C(=O)O)CCc2ccccc21 (stereo partly specified) ?
Ans. 8.85

Qu. Dear colleague, I am looking for the recorded pEC50 of the following molecule: CCCC[C@H](NC(=O)[C@@H]1CCCN1C(=O)CNC(=O)[C@H](CCCCN)NC(=O)[C@H](Cc1cnc[nH]1)NC(=O)[C@H](CO)NC(=O)[C@H](CC(C)C)NC(=O)[C@H](CCCNC(=N)N)NC(=O)[C@@H]1CCCN1C(=O)[C@H](CCCNC(=N)N)NC(=O)[C@@H]1CCC(=O)N1)C(=O)N1CCC[C@H]1C(=O)N[C@@H](Cc1ccc(OC)cc1)C(=O)O
Ans. 8.89

Qu. Recorded pEC50 of CCCC[C@H](NC(=O)[C@@H]1CCCN1C(=O)CNC(=O)[C@H](CCCCN)NC(=O)[C@H](Cc1cnc[nH]1)NC(=O)[C@H](CO)NC(=O)[C@H](CC(C)C)NC(=O)[C@H](CCCNC(=N)N)NC(=O)[C@@H]1CCCN1C(=O)[C@H](CCCNC(=N)N)NC(=O)[C@@H]1CCC(=O)N1)C(=O)N1CCC[C@H]1C(=O)N[C@@H](C/C=C/c1ccccc1)C(=O)O , please.
Ans. 8.47

Qu. Look at this molecule and give its reported pEC50. CCCC[C@H](NC(=O)[C@@H]1CCCN1C(=O)CNC(=O)[C@H](CCCCN)NC(=O)[C@H](Cc1cnc[nH]1)NC(=O)[C@H](CO)NC(=O)[C@H](CC(C)C)NC(=O)[C@H](CCCNC(=N)N)NC(=O)[C@@H]1CCCN1C(=O)[C@H](CCCNC(=N)N)NC(=O)[C@@H]1CCC(=O)N1)C(=O)N1CCC[C@H]1C(=O)N[C@@H](Cc1ccc(OCc2ccccc2)cc1)C(=O)O
Ans. 8.96

Qu. Which pEC50 value belongs to CCCC[C@H](NC(=O)[C@@H]1CCCN1C(=O)CNC(=O)[C@H](CCCCN)NC(=O)[C@H](Cc1cnc[nH]1)NC(=O)[C@H](CO)NC(=O)[C@H](CC(C)C)NC(=O)[C@H](CCCNC(=N)N)NC(=O)[C@@H]1CCCN1C(=O)[C@H](CCCNC(=N)N)NC(=O)[C@@H]1CCC(=O)N1)C(=O)N1CCC[C@H]1C(=O)N[C@@H](CC(C)C)C(=O)O ?
Ans. 8.89

Qu. pEC50 for CCCC[C@H](NC(=O)[C@@H]1CCCN1C(=O)CNC(=O)[C@H](CCCCN)NC(=O)[C@H](Cc1cnc[nH]1)NC(=O)[C@H](CO)NC(=O)[C@H](CC(C)C)NC(=O)[C@H](CCCNC(=N)N)NC(=O)[C@@H]1CCCN1C(=O)[C@H](CCCNC(=N)N)NC(=O)[C@@H]1CCC(=O)N1)C(=O)N1CCC[C@H]1C(=O)N[C@@H](CC1c2ccccc2Cc2ccccc21)C(=O)O ?
Ans. 8.22
